Collected pEC50 values appear next to each entry.
# assay_target: Atrial natriuretic peptide receptor 1 (Homo sapiens, UniProt P16066)
# Sequence (P16066 whole entry): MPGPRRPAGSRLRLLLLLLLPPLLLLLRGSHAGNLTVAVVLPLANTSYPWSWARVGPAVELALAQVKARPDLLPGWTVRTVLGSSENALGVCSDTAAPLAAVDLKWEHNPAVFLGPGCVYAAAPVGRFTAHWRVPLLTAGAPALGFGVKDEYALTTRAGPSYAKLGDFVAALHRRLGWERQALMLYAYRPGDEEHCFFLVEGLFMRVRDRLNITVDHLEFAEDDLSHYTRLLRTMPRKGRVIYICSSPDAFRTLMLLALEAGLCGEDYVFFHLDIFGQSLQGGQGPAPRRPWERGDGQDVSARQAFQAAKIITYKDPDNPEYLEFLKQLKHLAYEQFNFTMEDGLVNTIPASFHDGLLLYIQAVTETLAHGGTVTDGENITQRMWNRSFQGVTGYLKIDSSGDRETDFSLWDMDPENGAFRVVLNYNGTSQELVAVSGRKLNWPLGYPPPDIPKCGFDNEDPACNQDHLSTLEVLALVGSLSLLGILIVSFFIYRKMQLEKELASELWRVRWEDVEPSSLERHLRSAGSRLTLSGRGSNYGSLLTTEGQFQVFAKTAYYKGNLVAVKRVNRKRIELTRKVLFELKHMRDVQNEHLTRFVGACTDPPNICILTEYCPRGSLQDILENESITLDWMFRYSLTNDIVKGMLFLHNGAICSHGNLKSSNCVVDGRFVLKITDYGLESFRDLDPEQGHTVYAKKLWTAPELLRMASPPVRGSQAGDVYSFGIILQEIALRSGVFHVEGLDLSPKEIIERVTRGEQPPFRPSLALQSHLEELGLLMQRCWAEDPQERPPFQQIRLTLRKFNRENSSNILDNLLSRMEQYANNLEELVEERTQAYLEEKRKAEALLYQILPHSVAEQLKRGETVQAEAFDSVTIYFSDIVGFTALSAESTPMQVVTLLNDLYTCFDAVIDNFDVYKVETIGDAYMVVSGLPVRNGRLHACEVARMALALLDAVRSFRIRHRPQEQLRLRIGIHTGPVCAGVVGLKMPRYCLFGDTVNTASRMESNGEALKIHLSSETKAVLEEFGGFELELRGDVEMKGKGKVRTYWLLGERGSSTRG
# protocol_notes: Agonist activity at human NPR-A expressed in CHO cells assessed as increase in cGMP accumulation after 30 mins by radioimmunoassay
pEC50: −log10 of the molar value.
measurement_label: pEC50

{"compound": "CC(C)CC1C(=O)N=C(N)N1c1nc(NC(=N)N)nc(Nc2ccc(Nc3nc(NC(=N)N)nc(N4C(N)=NC(=O)C4CC(C)C)n3)cc2)n1 (stereo not drawn)", "experimental_result": 8.24}
{"compound": "CC(C)CC1C(=O)N=C(N)N1c1nc(NC(=N)N)nc(Nc2ccccc2)n1 (stereo not drawn)", "experimental_result": 5.40}
{"compound": "C/N=C(\\N(C)C)N(C)c1nc(Nc2ccccc2)nc(N2C(N)=NC(=O)C2CC(C)C)n1 (stereo not drawn)", "experimental_result": 4.19}

----------
# assay_target: UniProt:P18910
# Sequence (P18910 whole entry): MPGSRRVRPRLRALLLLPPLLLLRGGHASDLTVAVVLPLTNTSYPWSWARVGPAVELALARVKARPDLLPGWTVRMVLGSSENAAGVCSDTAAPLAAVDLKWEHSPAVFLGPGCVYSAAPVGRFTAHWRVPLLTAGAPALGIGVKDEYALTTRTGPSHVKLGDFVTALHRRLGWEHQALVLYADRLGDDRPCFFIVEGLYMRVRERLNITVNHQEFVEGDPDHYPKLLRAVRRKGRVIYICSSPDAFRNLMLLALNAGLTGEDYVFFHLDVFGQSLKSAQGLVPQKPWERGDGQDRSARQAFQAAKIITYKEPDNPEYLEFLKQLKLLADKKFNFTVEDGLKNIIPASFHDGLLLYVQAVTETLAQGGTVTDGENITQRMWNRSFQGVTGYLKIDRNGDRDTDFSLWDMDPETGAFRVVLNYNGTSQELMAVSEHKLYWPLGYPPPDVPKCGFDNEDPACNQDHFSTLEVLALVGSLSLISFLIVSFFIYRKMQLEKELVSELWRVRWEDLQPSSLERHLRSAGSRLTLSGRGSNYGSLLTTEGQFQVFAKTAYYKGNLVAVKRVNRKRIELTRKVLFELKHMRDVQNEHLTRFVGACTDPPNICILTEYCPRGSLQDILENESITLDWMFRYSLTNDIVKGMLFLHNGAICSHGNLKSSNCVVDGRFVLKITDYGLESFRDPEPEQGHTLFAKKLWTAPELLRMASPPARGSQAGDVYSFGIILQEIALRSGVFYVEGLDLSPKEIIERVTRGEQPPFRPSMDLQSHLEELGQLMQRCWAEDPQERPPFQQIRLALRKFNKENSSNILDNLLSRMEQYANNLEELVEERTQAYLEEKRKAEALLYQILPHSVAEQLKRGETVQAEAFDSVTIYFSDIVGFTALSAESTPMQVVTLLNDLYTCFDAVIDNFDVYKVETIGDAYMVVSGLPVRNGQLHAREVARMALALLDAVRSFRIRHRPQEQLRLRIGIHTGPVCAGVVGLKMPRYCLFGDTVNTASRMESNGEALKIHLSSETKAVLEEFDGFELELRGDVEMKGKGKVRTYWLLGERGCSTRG
# protocol_notes: Agonist activity at rat NPR-A expressed in CHO cells assessed as increase in cGMP accumulation after 15 mins by fluorescent assay
pEC50: −log10 of the molar value.
Recorded pEC50 for the following compounds

{"compound": "CC(C)CC1C(=O)N=C(N)N1c1nc(NC(=N)N)nc(NC2CCC(Nc3nc(NC(=N)N)nc(N4C(N)=NC(=O)C4CC(C)C)n3)CC2)n1 (configuration not stated)", "assay_target": "UniProt:P18910", "pEC50": 7.12}
{"compound": "CCCCC1C(=O)N=C(N)N1c1nc(NC(=N)N)nc(Nc2ccc(Nc3nc(NC(=N)N)nc(N4C(N)=NC(=O)C4CCCC)n3)cc2)n1 (configuration not stated)", "assay_target": "UniProt:P18910", "pEC50": 7.64}

----------
# assay_target: Atrial natriuretic peptide receptor 1 (Homo sapiens)
# protocol_notes: Agonist activity at human NPR-A expressed in CHO cells assessed as increase in cGMP accumulation after 30 mins by radioimmunoassay
pEC50: −log10 of the molar value.
This section presents molecules with their documented pEC50 values.
measurement_label: pEC50

{"molecule": "CC1C(=O)N=C(N)N1c1nc(NC(=N)N)nc(Nc2ccc(Nc3nc(NC(=N)N)nc(N4C(N)=NC(=O)C4C)n3)cc2)n1 (centres undefined)", "assay_target": "Atrial natriuretic peptide receptor 1 (Homo sapiens)", "prefix_operator": "<", "experimental_result": 5.00}
{"molecule": "CC(C)CC1C(=O)N=C(N)N1c1nc(NC(=N)N)nc(Nc2ccc(Nc3nc(NC(=N)N)nc(N4C(N)=NC(=O)C4C)n3)cc2)n1 (centres undefined)", "assay_target": "Atrial natriuretic peptide receptor 1 (Homo sapiens)", "prefix_operator": "=", "experimental_result": 7.72}
{"molecule": "CC(C)CC1C(=O)N=C(N)N1c1nc(NC(=N)N)nc(NC2CCC(Nc3nc(NC(=N)N)nc(N4C(N)=NC(=O)C4CC(C)C)n3)CC2)n1 (centres undefined)", "assay_target": "Atrial natriuretic peptide receptor 1 (Homo sapiens)", "prefix_operator": "=", "experimental_result": 8.09}
{"molecule": "CCCCC1C(=O)N=C(N)N1c1nc(NC(=N)N)nc(Nc2ccc(Nc3nc(NC(=N)N)nc(N4C(N)=NC(=O)C4CCCC)n3)cc2)n1 (centres undefined)", "assay_target": "Atrial natriuretic peptide receptor 1 (Homo sapiens)", "prefix_operator": "=", "experimental_result": 8.70}
